Below, each of the molecules is paired with its reported MIC value.
- System: Staphylococcus aureus
- assay_name: Antimicrobial activity against Staphylococcus aureus by microdilution method
- Assay type: functional

CCc1ccc(NC(=S)NC(=O)c2cnn(C)c2)cc1 ... > 1000 mg/L
Cc1cccc(NC(=S)NC(=O)c2cnn(C)c2)c1 ... > 1000 mg/L
CCCc1ccccc1NC(=S)NC(=O)c1cnn(C)c1 ... 500 mg/L
CC(C)c1ccccc1NC(=S)NC(=O)c1cnn(C)c1 ... > 1000 mg/L
CCCc1ccc(NC(=S)NC(=O)c2cnn(C)c2)cc1 ... > 1000 mg/L
CCc1ccccc1NC(=S)NC(=O)c1cnn(C)c1 ... 250 mg/L

Fill in the recorded MIC for this molecule, with Staphylococcus aureus as test system: `CC(C)c1ccc(NC(=S)NC(=O)c2cnn(C)c2)cc1`
> 1000 mg/L

Value wanted: MIC (Staphylococcus aureus) of entry CCC(C)c1ccc(NC(=S)NC(=O)c2cnn(C)c2)cc1 (stereo not drawn)
> 1000 mg/L

Give MIC (Staphylococcus aureus) of the following molecule: `Cn1cc(C(=O)NC(=S)Nc2ccccc2C(C)(C)C)cn1`
> 1000 mg/L

What is its MIC for Staphylococcus aureus? Entry: `Cc1ccccc1NC(=S)NC(=O)c1cnn(C)c1`
> 1000 mg/L

Hi! What's the reported MIC for `Cn1cc(C(=O)NC(=S)Nc2ccc(C(C)(C)C)cc2)cn1` on Staphylococcus aureus?
> 1000 mg/L

Checklist item: MIC tested on Staphylococcus aureus, entry CCC(C)c1ccccc1NC(=S)NC(=O)c1cnn(C)c1 (stereo not drawn) , value?
> 1000 mg/L

Lab note: need MIC with Staphylococcus aureus for entry `Cc1ccc(NC(=S)NC(=O)c2cnn(C)c2)cc1` , please look it up.
> 1000 mg/L

* * *

- Test system: Bacillus subtilis
- assay_name: Antimicrobial activity against Bacillus subtilis 10.10.2006 by microdilution method
- Format: functional
Catalogue of molecules with associated MIC

Take a look at these entries with their results.
CCC(C)c1ccccc1NC(=S)NC(=O)c1cnn(C)c1 (stereo not drawn) ... > 1000 µg/mL
Cn1cc(C(=O)NC(=S)Nc2ccccc2C(C)(C)C)cn1 ... > 1000 µg/mL
CCC(C)c1ccc(NC(=S)NC(=O)c2cnn(C)c2)cc1 (stereo not drawn) ... > 1000 µg/mL

// next item, MIC requested
Quick one: MIC of `Cc1ccccc1NC(=S)NC(=O)c1cnn(C)c1` ?
> 1000 µg/mL

* * *

- Test system: Pseudomonas aeruginosa
- assay_name: Antimicrobial activity against Pseudomonas aeruginosa 5541 by microdilution method
- Assay type: functional
value_type: MIC

CCc1ccc(NC(=S)NC(=O)c2cnn(C)c2)cc1 ... > 1000 µg/mL

Here's the next entry for you.
Name the reported MIC value associated with the molecule `Cn1cc(C(=O)NC(=S)Nc2ccc(C(C)(C)C)cc2)cn1`
> 1000 µg/mL

* * *

- Test system: Bacillus subtilis
- assay_name: Antimicrobial activity against Bacillus subtilis 10.10.2006 by microdilution method
- Format: functional
molecules and their reported MIC

Worked cases, answers included:
Cn1cc(C(=O)NC(=S)Nc2ccc(C(C)(C)C)cc2)cn1 ... > 1000 µg/mL
CCc1ccccc1NC(=S)NC(=O)c1cnn(C)c1 ... 1000 µg/mL
CCCc1ccccc1NC(=S)NC(=O)c1cnn(C)c1 ... 500 µg/mL
Cc1ccc(NC(=S)NC(=O)c2cnn(C)c2)cc1 ... > 1000 µg/mL
CCCc1ccc(NC(=S)NC(=O)c2cnn(C)c2)cc1 ... > 1000 µg/mL
CC(C)c1ccccc1NC(=S)NC(=O)c1cnn(C)c1 ... > 1000 µg/mL

Sample `Cc1cccc(NC(=S)NC(=O)c2cnn(C)c2)c1` — what was its MIC?
1000 µg/mL

For the molecule shown here, `CC(C)c1ccc(NC(=S)NC(=O)c2cnn(C)c2)cc1` , give the reported MIC.
> 1000 µg/mL

Data request, read-out MIC, for `CCc1ccc(NC(=S)NC(=O)c2cnn(C)c2)cc1`
> 1000 µg/mL

* * *

Listed molecules paired with reported MIC
- Test system: Pseudomonas aeruginosa
- assay_name: Antimicrobial activity against Pseudomonas aeruginosa 5541 by microdilution method
- Format: functional

Below are worked cases with known answers.
CCCc1ccccc1NC(=S)NC(=O)c1cnn(C)c1 ... 1000 mg/L
CCC(C)c1ccc(NC(=S)NC(=O)c2cnn(C)c2)cc1 (stereo unspecified) ... > 1000 mg/L
Cc1cccc(NC(=S)NC(=O)c2cnn(C)c2)c1 ... > 1000 mg/L
Cn1cc(C(=O)NC(=S)Nc2ccccc2C(C)(C)C)cn1 ... > 1000 mg/L
CCCc1ccc(NC(=S)NC(=O)c2cnn(C)c2)cc1 ... > 1000 mg/L

Given the entry `CCc1ccccc1NC(=S)NC(=O)c1cnn(C)c1` , report its measured MIC.
500 mg/L

What does the data say about its MIC? Entry: `Cc1ccc(NC(=S)NC(=O)c2cnn(C)c2)cc1`
> 1000 mg/L

Fill in the blank: the reported MIC of CCC(C)c1ccccc1NC(=S)NC(=O)c1cnn(C)c1 (stereo unspecified) is ____.
> 1000 mg/L

What value of MIC has been recorded for this entry: `CC(C)c1ccccc1NC(=S)NC(=O)c1cnn(C)c1`
> 1000 mg/L

Query (molecule): `CC(C)c1ccc(NC(=S)NC(=O)c2cnn(C)c2)cc1` ; field requested: MIC
> 1000 mg/L

// query MIC value for entry `Cc1ccccc1NC(=S)NC(=O)c1cnn(C)c1`
> 1000 mg/L

// provenance: ChEMBL document CHEMBL3045554
